# Test system: MDA-MB-231
# assay name: Cytotoxicity against human MDA-MB-231 cells after 48 hrs by MTT assay
# Format: functional, cell-based
# condition: MDA-MB-231, 48 h
pEC50: −log10 of the molar value.
readout: pEC50

smiles_notation=CO[C@@H]1O[C@H](COc2ccccc2C(C)C)[C@@H](O)[C@H](O)[C@H]1Oc1ccc(OC2CCCCC2)cc1 target_of_assay=MDA-MB-231 test_value=4.36
smiles_notation=CO[C@H]1O[C@H](COc2ccccc2C(C)C)[C@@H](O)[C@H](O)[C@H]1Oc1ccc(OC2CCCCC2)cc1 target_of_assay=MDA-MB-231 test_value=4.44
smiles_notation=CO[C@H]1O[C@H](COc2ccc(C3CCCCC3)cc2)[C@@H](O)[C@H](O)[C@H]1Oc1cccc2c1CCCC2 target_of_assay=MDA-MB-231 test_value=4.43
smiles_notation=CO[C@H]1O[C@H](COc2ccc(C3CCCCC3)cc2)[C@@H](O)[C@H](O)[C@H]1Oc1ccc2c(c1)CCCC2 target_of_assay=MDA-MB-231 test_value=4.60
smiles_notation=CO[C@H]1O[C@H](COc2ccc(-c3ccccc3)cc2)[C@@H](O)[C@H](O)[C@H]1Oc1ccc(C(C)C)cc1 target_of_assay=MDA-MB-231 test_value=4.51
smiles_notation=CO[C@@H]1O[C@H](COc2ccc(OC3CCCCC3)cc2)[C@@H](O)[C@H](O)[C@H]1Oc1ccc(C(C)C)cc1 target_of_assay=MDA-MB-231 test_value=4.46
smiles_notation=CO[C@H]1O[C@H](COc2ccc(OC3CCCCC3)cc2)[C@@H](O)[C@H](O)[C@H]1Oc1ccc(OC2CCCCC2)cc1 target_of_assay=MDA-MB-231 test_value=4.70
smiles_notation=CO[C@@H]1O[C@H](COc2ccc(-c3ccccc3)cc2)[C@@H](O)[C@H](O)[C@H]1Oc1cccc(C(C)C)c1 target_of_assay=MDA-MB-231 test_value=4.46
smiles_notation=CO[C@H]1O[C@H](COc2ccc(-c3ccccc3)cc2)[C@@H](O)[C@H](O)[C@H]1Oc1ccccc1C(C)C target_of_assay=MDA-MB-231 test_value=4.47
smiles_notation=CO[C@@H]1O[C@H](COc2ccc(-c3ccccc3)cc2)[C@@H](O)[C@H](O)[C@H]1Oc1ccc(OC2CCCCC2)cc1 target_of_assay=MDA-MB-231 test_value=4.44
smiles_notation=CO[C@H]1O[C@H](COc2ccc(OC3CCCCC3)cc2)[C@@H](O)[C@H](O)[C@H]1Oc1ccc(C(C)C)cc1 target_of_assay=MDA-MB-231 test_value=4.60
smiles_notation=CO[C@H]1O[C@H](COc2ccc(-c3ccccc3)cc2)[C@@H](O)[C@H](O)[C@H]1Oc1cccc(C(C)C)c1 target_of_assay=MDA-MB-231 test_value=4.52
smiles_notation=CO[C@@H]1O[C@H](COc2cccc(C(C)C)c2)[C@@H](O)[C@H](O)[C@H]1Oc1ccc(OC2CCCCC2)cc1 target_of_assay=MDA-MB-231 test_value=4.40
smiles_notation=CO[C@H]1O[C@H](COc2ccc3c(c2)CCCC3)[C@@H](O)[C@H](O)[C@H]1Oc1ccc(OC2CCCCC2)cc1 target_of_assay=MDA-MB-231 test_value=4.70
smiles_notation=CO[C@H]1O[C@H](COc2ccc(C3CCCCC3)cc2)[C@@H](O)[C@H](O)[C@H]1Oc1ccc(OC2CCCCC2)cc1 target_of_assay=MDA-MB-231 test_value=4.85
smiles_notation=CO[C@H]1O[C@H](COc2cccc(C(C)C)c2)[C@@H](O)[C@H](O)[C@H]1Oc1ccc(OC2CCCCC2)cc1 target_of_assay=MDA-MB-231 test_value=4.42
smiles_notation=CO[C@@H]1O[C@H](COc2ccc(OC3CCCCC3)cc2)[C@@H](O)[C@H](O)[C@H]1Oc1ccc(OC2CCCCC2)cc1 target_of_assay=MDA-MB-231 test_value=4.59
